target_or_system: human M4 muscarinic acetylcholine receptor (Homo sapiens, UniProt P08173)
Sequence (P08173 whole entry): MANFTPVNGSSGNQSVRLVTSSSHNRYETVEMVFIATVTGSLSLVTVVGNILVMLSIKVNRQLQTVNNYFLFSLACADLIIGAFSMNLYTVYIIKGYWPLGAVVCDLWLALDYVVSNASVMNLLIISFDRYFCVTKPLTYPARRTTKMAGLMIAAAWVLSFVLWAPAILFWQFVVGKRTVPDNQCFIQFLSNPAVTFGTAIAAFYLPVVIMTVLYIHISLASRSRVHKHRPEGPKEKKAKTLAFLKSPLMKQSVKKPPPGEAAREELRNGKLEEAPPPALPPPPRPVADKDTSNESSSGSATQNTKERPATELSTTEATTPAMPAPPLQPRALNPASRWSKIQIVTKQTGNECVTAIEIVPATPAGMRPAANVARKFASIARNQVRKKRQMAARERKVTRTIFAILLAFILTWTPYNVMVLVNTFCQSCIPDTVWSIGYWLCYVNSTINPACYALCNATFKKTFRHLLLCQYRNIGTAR
run_description: human FLIPR-based M4 PAM assay (Ca2+ mobilization, CHO-K1 cells with human M4 receptor and Gαqi5)
recorded_conditions: acetylcholine at 20% of maximum response, read-out: M4 PAM IP
Description: In a typical experiment the M4 muscarinic acetylcholine receptor modulating activity of the compounds of the present invention was determined in accordance with the following experimental method. […] Next, 10 uL of acetylcholine is added (final concentration calculated so as to achieve 20% of the maximum acetycholine response), and the fluorescence reading is continued for 3.5 min. […]
// values below are reported log10 of EC50
All values: base-10 log of EC50 in nM.

>>> recorded_result("COc1ccc(OC2CCN(c3nc4c(cc3C)C(=O)N(CC3COC3)C4)CC2)cn1 [Example 250A]")
1.85
>>> recorded_result("COc1ccc(OC2CCN(c3nc4c(cc3C#N)C(=O)NC4)CC2)cn1 [Example 223]")
2.54
>>> recorded_result("COc1ccc(OC2CCN(c3nc4c(cc3C)C(=O)N(Cc3ccncc3)C4=O)CC2)cn1 [Example 296]")
1.92
>>> recorded_result("Cc1cc2c(nc1N1CCC(Oc3ccccc3Cl)CC1)CNC2=O [Example 73]")
3.35
>>> recorded_result("Cc1cc2c(nc1N1CC[C@H](Oc3ccc4c(cnn4C)c3)[C@H](F)C1)CNC2=O [Example 23]")
1.85
>>> recorded_result("Cc1cc2c(nc1N1CCC(Oc3ccc4c(c3)CN(C)CC4)CC1)CNC2=O [Example 292]")
2.24

Please indicate log10 of EC50 recorded for Cc1cc2c(nc1N1CCC(Oc3ccc(F)cc3)CC1)[C@H](CO)N(C)C2=O [Example 280]
2.64

Please indicate log10 of EC50 recorded for COc1cncc(OC2CCN(c3nc4c(cc3C)C(=O)NC4)CC2)c1 [Example 101]
2.94

* * *

target_or_system: human M4 muscarinic acetylcholine receptor (Homo sapiens)
run_description: human FLIPR-based M4 PAM assay (Ca2+ mobilization, CHO-K1 cells with human M4 receptor and Gαqi5)
recorded_conditions: acetylcholine at 20% of maximum response, read-out: M4 PAM IP
Procedure: In a typical experiment the M4 muscarinic acetylcholine receptor modulating activity of the compounds of the present invention was determined in accordance with the following experimental method. […] Next, 10 uL of acetylcholine is added (final concentration calculated so as to achieve 20% of the maximum acetycholine response), and the fluorescence reading is continued for 3.5 min. […]
reported_endpoint: pEC50
Remember the convention: pEC50 equals -log10 of concentration in molar.

Known pEC50 results, listed for orientation:
>>> recorded_result("COc1ccc(O[C@@H]2CCN(c3nc4c(cc3C)C(=O)NC4)C[C@H]2C)cn1 (single isomer, unassigned)")
7.07
>>> recorded_result("Cc1cc2c(nc1N1CCC(OCC3(C)CCC3)CC1)CNC2=O")
6.61
>>> recorded_result("Cc1cc2c(nc1N1CCC(Oc3ccc4c(c3)c(C)nn4C)CC1)CNC2=O")
5.96
>>> recorded_result("Cc1cc2c(nc1N1CCC(Oc3ccc4[nH]ncc4c3)CC1)CNC2=O")
7.85
>>> recorded_result("Cc1cc2c(nc1N1CCC(Oc3ccc4[nH]ncc4c3)CC1)CN(C)C2=O")
7.80
>>> recorded_result("Cc1cc2c(nc1N1CCC(OCC3(C)CC3)CC1)[C@H](CO)N(C)C2=O")
5.53
>>> recorded_result("CCc1cc2c(nc1N1CC[C@H](OCC3(C)CC3)[C@@H](F)C1)CNC2=O")
6.82
>>> recorded_result("CCc1cc2c(nc1N1CCC(OCC3(C)CC3)CC1)[C@@H](CO)N(C)C2=O")
7.64

Param request: pEC50 | system human M4 muscarinic acetylcholine receptor (Homo sapiens) | item Cc1cc2c(nc1N1CCC(Oc3ccc4c(cnn4CCO)c3)CC1)CNC2=O
7.00

Param request: pEC50 | system human M4 muscarinic acetylcholine receptor (Homo sapiens) | item COC(=O)c1c(C)c(N2CCC(Oc3ccc4c(c3)COC4)CC2)nc2c1C(=O)NC2
5.74
